The reported measurements were obtained from ChEMBL document CHEMBL1201862.

- Tested on: DLD-1
- test-method-notes: NCI tumour cell line growth inhibition, 48 h
Activity calls are given as the source filed them. Cut-off read from the data, not from the text of the source: active = GI50 up to about 1.1 µM and inactive = higher.
readout-name: GI50

1) O=C1CCCC2COc3ccc(O)c1c32 (stereo unspecified): > 100 µM (inactive)
2) CC(Nc1ccc(S(=O)(=O)NC(=N)N)cc1)c1c2ccccc2nc2ccccc12 (stereo unspecified): 18.1 µM (inactive)
3) Cc1ccc2oc(=O)cc(CC(=O)O)c2c1: > 100 µM (inactive)
4) O=C1Nc2cc(F)ccc2C1=O: > 100 µM (inactive)

# assay system DLD-1: give GI50 of NC(=O)CCC(Nc1c2ccccc2[n+]([O-])c2ccccc12)C(=O)O (stereo unspecified)
27.8 µM (inactive)

# assay system DLD-1: give GI50 of CC1(O)C(C)(O)C2(C)O[Te]3(OC12C)OC1(C)C(C)(O)C(C)(O)C1(C)O3 (stereo unspecified)
33 µM (inactive)

# assay system DLD-1: give GI50 of CCCCCCCCCCCCCCCCCCCCCC(=O)Nc1ccn(C2OC(CO)C(O)C2O)c(=O)n1 (stereo unspecified)
> 100 µM (inactive)

# assay system DLD-1: give GI50 of CCCCCCN(N)C(=O)CC#N
87.3 µM (inactive)

# assay system DLD-1: give GI50 of CC12OC3(C)OC(=O)C(c4ccccc4)(O1)C3(C)O2 (stereo unspecified)
> 100 µM (inactive)

# assay system DLD-1: give GI50 of CC1=C(C(=O)Nc2cc(=O)n(C)c(=O)n2C)C(c2cccc([N+](=O)[O-])c2)C(C(=O)Nc2cc(=O)n(C)c(=O)n2C)=C(C)N1
> 100 µM (inactive)

# assay system DLD-1: give GI50 of S=C(Nc1ccccc1)Nc1[nH]c(=S)sc1-c1nc2ccccc2[nH]1
76.9 µM (inactive)

---

- System: HOP-62
- test-method-notes: NCI tumour cell line growth inhibition, 48 h
Calls of active or inactive are those of the source. Rule as the data show it: active = GI50 up to about 1.1 µM and inactive = higher.
Reply using exactly one outcome from active, inactive

Just curious, what result did C[C@H]1CC(=O)[C@@]2(O)C#C/C=C\C#C[C@@H]3Nc4c(cc(O)c5c4C(=O)c4ccccc4C5=O)[C@]24O[C@]314 get here?
active

Just curious, what result did O=S(=O)(O)c1cc(S(=O)(=O)O)c2cc(/N=N/c3ccc(/N=N/c4ccc(/C=C/c5ccc(/N=[N+](/[O-])c6ccc(/C=C/c7ccc(/N=N/c8ccc(/N=N/c9ccc%10cc(S(=O)(=O)O)cc(S(=O)(=O)O)c%10c9)cc8)cc7S(=O)(=O)O)c(S(=O)(=O)O)c6)cc5S(=O)(=O)O)c(S(=O)(=O)O)c4)cc3)ccc2c1 get here?
inactive

---

- System: SW-620
- test-method-notes: NCI tumour cell line growth inhibition, 48 h
Calls of active or inactive are those of the source. No stated cut-off is given here; in the data, active = GI50 up to about 1.1 µM and inactive = higher.
Reply using exactly one outcome from y for active, n for inactive

Below are worked cases with known answers.
1) COc1cc(OC)c(C2(c3c(OC(C)C)c(=O)c3=O)SCCCS2)cc1OC: n
2) C1=Cc2nc1c(-c1ccccc1)c1ccc([n-]1)c(-c1ccccc1)c1nc(c(-c3ccccc3)c3ccc([n-]3)c2-c2ccccc2)C=C1.[Zn+2]: n
3) C[C@H]1CC(=O)[C@@]2(O)C#C/C=C\C#C[C@@H]3Nc4c(cc(O)c5c4C(=O)c4ccccc4C5=O)[C@]24O[C@]314: y

Proceed to the following item.
Just curious, what result did Cc1ccc(C2CC(=O)CC(c3ccc(C)cc3)C23C(=O)NC(=O)NC3=O)cc1 (centres undefined) get here?
n
